Target: CDK4/CyclinD (Homo sapiens (Human))
Sequence (P11802 whole entry, species assumed): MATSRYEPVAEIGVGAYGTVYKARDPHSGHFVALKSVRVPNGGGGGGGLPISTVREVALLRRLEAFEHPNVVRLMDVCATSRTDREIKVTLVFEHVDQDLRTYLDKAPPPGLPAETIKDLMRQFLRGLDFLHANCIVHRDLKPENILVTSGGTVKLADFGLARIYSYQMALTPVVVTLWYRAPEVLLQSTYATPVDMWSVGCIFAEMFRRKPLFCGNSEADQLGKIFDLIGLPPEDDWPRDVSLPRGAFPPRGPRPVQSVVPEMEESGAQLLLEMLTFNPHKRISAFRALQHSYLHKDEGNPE
Sequence (P24385 whole entry partner, species assumed): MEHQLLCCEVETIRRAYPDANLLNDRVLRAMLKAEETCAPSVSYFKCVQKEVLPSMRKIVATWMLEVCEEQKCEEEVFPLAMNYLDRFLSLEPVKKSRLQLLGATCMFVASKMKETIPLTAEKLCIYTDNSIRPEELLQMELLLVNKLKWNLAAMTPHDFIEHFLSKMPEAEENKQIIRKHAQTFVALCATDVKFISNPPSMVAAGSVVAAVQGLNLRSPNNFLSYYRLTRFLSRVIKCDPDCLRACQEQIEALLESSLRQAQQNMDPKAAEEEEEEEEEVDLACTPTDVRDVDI
Experiment: CDK4/CyclinD kinase enzymatic assay (Caliper LabChip)
Settings: compounds as HCl salts, 12-point dose response, at the Km for ATP, three hours
Protocol: Kinase enzymatic reactions were performed in 384-well microplates using a 12-channel Caliper LabChip instrument as a detection device. […] As substrate and product are separated, two peaks of fluorescence are observed. Change in the relative fluorescence intensity of the substrate and product peaks is the parameter measured, reflecting enzyme activity. In the presence of an inhibitor, the ratio between product and substrate is altered. […]
valueType: pIC50
pIC50 field: float, defined as -log10 of concentration (mol/L).

Given CN1CCN(c2ccc(Nc3ncc4cc5n(c4n3)CCNC5=O)nc2)CC1 , state its recorded pIC50.
6.34
